Assay: Cytotoxicity, Alamar Blue (resazurin) assay
Assay type: cell-based, human
Conditions: human, HepG2 cells, HepG2, 10% FBS; read-out: cytotoxicity HepG2 10% FBS
readout.type: CC50 at 24 h (µg/mL)
Your answer is read as µg/mL, so omit the unit and give the number.

# CC50 at 24 h lookup, item `CC(C)C[C@H](NC(=O)[C@H](CCCNC(=N)N)NC(=O)CNC(=O)CNC(=O)[C@@H](N)CCCNC(=N)N)C(=O)N[C@H]1CSSC[C@@H](C(=O)N[C@H](C(=O)NCC(=O)N[C@@H](CCCNC(=N)N)C(N)=O)C(C)C)NC(=O)[C@H](C(C)C)NC(=O)[C@@H]2CSSC[C@H](NC(=O)[C@H](Cc3ccc(O)cc3)NC1=O)C(=O)N[C@@H](CCCNC(=N)N)C(=O)N[C@@H](CCCNC(=N)N)C(=O)N[C@@H](CCCNC(=N)N)C(=O)N[C@@H](Cc1ccccc1)C(=O)N2`
96.1

###

Test: Cytotoxicity, Alamar Blue (resazurin) assay
Assay type: cell-based, human
Conditions: human, HEK293 cells, HEK293, 10% FBS; read-out: cytotoxicity HEK293 10% FBS
readout.type: CC50 at 24 h (µg/mL)
Number only, in µg/mL; omit the unit.

Using the record for CC(C)C[C@H](NC(=O)[C@H](CCCNC(=N)N)NC(=O)CNC(=O)CNC(=O)[C@@H](N)CCCNC(=N)N)C(=O)N[C@H]1CSSC[C@@H](C(=O)N[C@H](C(=O)NCC(=O)N[C@@H](CCCNC(=N)N)C(N)=O)C(C)C)NC(=O)[C@H](C(C)C)NC(=O)[C@@H]2CSSC[C@H](NC(=O)[C@H](Cc3ccc(O)cc3)NC1=O)C(=O)N[C@@H](CCCNC(=N)N)C(=O)N[C@@H](CCCNC(=N)N)C(=O)N[C@@H](CCCNC(=N)N)C(=O)N[C@@H](Cc1ccccc1)C(=O)N2 [protegrin-1] , report its CC50 at 24 h.
93.9

Where these numbers come from: paper PMC4906375
